# protocol description: NCI Yeast Anticancer Drug Screen. Data for the rad50 strain (AID 155);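 further: 0% = growth of vehicle-only cultures of the same strain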
# conditions: S. cerevisiae rad50 strain growth inhibition; at 50.0 µM
The panel holds about 79,000 compounds, 15% with a hit somewhere; the sample as a whole holds those more often. Activity calls are given as the source filed them. No stated cut-off is given here; in the data, active means growth inhibition above about 70%; inactive means the rest.
Pick one: active, inactive

Consider the worked cases shown below.
[
  {
    "compound": "CCC(=O)N(O)C(C)(C)C",
    "class": "inactive"
  },
  {
    "compound": "C=C1C(=O)OC2/C=C(\\C)C(=O)CC3OC(C)(C)OC3(C)CC(OC(=O)/C(C)=C/C)C12 (centres undefined)",
    "class": "inactive"
  }
]

# evaluate next
Problem: Hey, what did the test say about COc1cc(/C=N/NC(=O)Cc2cccc3ccccc23)ccc1O ?
Solution: inactive

###

Listing: growth inhibition of selected compounds
# protocol description: NCI Yeast Anticancer Drug Screen. Data for the rad50 strain (AID 155);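 further: 0% = growth of vehicle-only cultures of the same strain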
# conditions: S. cerevisiae rad50 strain growth inhibition; at 50.0 µM; stronger effect = higher value
The panel holds about 79,000 compounds, 15% with a hit somewhere; the sample as a whole holds those more often.
Numeric only. Scale: %

Reference set, count: 3
[
  {
    "compound": "CCOC(=O)c1cnc(N)nc1N",
    "growth inhibition [%]": 6.35
  },
  {
    "compound": "CCCCc1ccc(-n2c(C)nc3[nH]cc(C)c3c2=N)cc1",
    "growth inhibition [%]": -1.35
  },
  {
    "compound": "O=C(N/N=C\\c1cccc2c([N+](=O)[O-])cccc12)Nc1ccccc1",
    "growth inhibition [%]": -30.6
  }
]

Switching to the query record.
Problem: Find the recorded growth inhibition belonging to CP1(=O)CC(=O)CCCCC(=O)C1 and report it.
Solution: 2.25

###

# protocol description: NCI Yeast Anticancer Drug Screen. Data for the bub3 strain (AID 167)
# conditions: S. cerevisiae bub3 mutant strain, at 50.0 µM
This is part of a sample that, as a whole, favours compounds with a hit. Of some 79,000 tested, about 15% had one in any assay. The source made the active and inactive calls. Rule as the data show it: active = growth inhibition above about 70%; inactive = the rest.
Pick one: active, inactive

Consider the worked cases shown below.
[
  {
    "compound": "O=S1CCCO1 (centres undefined)",
    "class": "inactive"
  },
  {
    "compound": "CC(C)(Oc1ccc(/C=C/C(=O)c2ccc(Cl)cc2)cc1)C(=O)Nc1c(Cl)cccc1Cl",
    "class": "inactive"
  },
  {
    "compound": "C=Cc1ccc(C)[n+](C[Si](C)(C)O[Si](C)(C)C)c1",
    "class": "inactive"
  },
  {
    "compound": "COc1ccc(C(=O)COC(C)(C)C)cc1",
    "class": "inactive"
  },
  {
    "compound": "NC(=O)OCC1CCCCC1OC(N)=O (centres undefined)",
    "class": "inactive"
  }
]

Problem: Hey, what did the test say about Cc1onc(-c2c(F)cccc2Cl)c1C(=O)Nc1cc2cc([N+](=O)[O-])ccc2oc1=O ?
Solution: inactive

Problem: Hey, what did the test say about CN(C)N=Nc1c(Cl)cccc1Cl ?
Solution: inactive

Problem: Hey, what did the test say about CCC(C)NC(=O)C(C)C (centres undefined) ?
Solution: inactive

Problem: Hey, what did the test say about CN1CCC(OC(=O)C(O)C2CCCCC2)CC1 (centres undefined) ?
Solution: inactive

Problem: Hey, what did the test say about COc1ccc(N2C(=O)C3c4[nH]c5ccc(OC)cc5c4C4CCC(C(C)(C)C)CC4C3C2=O)cc1 (centres undefined) ?
Solution: inactive

Problem: Hey, what did the test say about CCCCCCC(C)C(C#N)C(=O)OCC (centres undefined) ?
Solution: inactive

Problem: Hey, what did the test say about Nc1cc(Cl)ccc1N1C(=O)C=CC1=O ?
Solution: inactive

Problem: Hey, what did the test say about O=C(/C=C\c1ccc(/C=C\C(=O)c2ccccc2O)cc1)c1ccccc1O ?
Solution: inactive

Problem: Hey, what did the test say about NC(=O)C(N)C(N)=NCc1ccccc1 (centres undefined) ?
Solution: inactive

Problem: Hey, what did the test say about CN(C)CCCNc1cc[n+](C)c2cccc([N+](=O)[O-])c12 ?
Solution: inactive

Problem: Hey, what did the test say about COc1cc(-c2c3c(cc4c2OCO4)CC(O)C(C(=O)O)C3)cc(OC)c1OC (centres undefined) ?
Solution: inactive

Problem: Hey, what did the test say about N/C(=N\OC(=O)Nc1cccc(Cl)c1)C(Cl)(Cl)Cl ?
Solution: active

Problem: Hey, what did the test say about CS/C(=C/c1ccc2ccccc2[n+]1C)N1CCN(C)CC1 ?
Solution: inactive

Problem: Hey, what did the test say about C[N+](C)(Cn1nc(Cl)c2ccc([N+](=O)[O-])cc21)Cn1nc(Cl)c2ccc([N+](=O)[O-])cc21 ?
Solution: inactive

Problem: Hey, what did the test say about N#Cc1cn(C2OC(CO)C3OC32)c2ncnc(NC(=O)c3ccccc3)c12 (centres undefined) ?
Solution: inactive

Problem: Hey, what did the test say about Oc1ccc(-c2cc(-c3cc(-c4ccc(O)cc4)no3)on2)cc1 ?
Solution: inactive

Problem: Hey, what did the test say about O=C(O)c1cccc(C2=CCCC2)c1 ?
Solution: inactive

Problem: Hey, what did the test say about CC(C)=Cc1cc(CCC/C(C)=C/Cc2c(O)cc(C)c(C(=O)O)c2O)co1 ?
Solution: inactive

Problem: Hey, what did the test say about COc1ccccc1C(=O)C1OC1c1ccc(Cl)cc1Cl (centres undefined) ?
Solution: inactive
